Sourced from ChEMBL document CHEMBL1961873

# subject_of_test: Tyrosine-protein kinase JAK2 (Homo sapiens) (UniProt O60674)
# Sequence (O60674 whole entry): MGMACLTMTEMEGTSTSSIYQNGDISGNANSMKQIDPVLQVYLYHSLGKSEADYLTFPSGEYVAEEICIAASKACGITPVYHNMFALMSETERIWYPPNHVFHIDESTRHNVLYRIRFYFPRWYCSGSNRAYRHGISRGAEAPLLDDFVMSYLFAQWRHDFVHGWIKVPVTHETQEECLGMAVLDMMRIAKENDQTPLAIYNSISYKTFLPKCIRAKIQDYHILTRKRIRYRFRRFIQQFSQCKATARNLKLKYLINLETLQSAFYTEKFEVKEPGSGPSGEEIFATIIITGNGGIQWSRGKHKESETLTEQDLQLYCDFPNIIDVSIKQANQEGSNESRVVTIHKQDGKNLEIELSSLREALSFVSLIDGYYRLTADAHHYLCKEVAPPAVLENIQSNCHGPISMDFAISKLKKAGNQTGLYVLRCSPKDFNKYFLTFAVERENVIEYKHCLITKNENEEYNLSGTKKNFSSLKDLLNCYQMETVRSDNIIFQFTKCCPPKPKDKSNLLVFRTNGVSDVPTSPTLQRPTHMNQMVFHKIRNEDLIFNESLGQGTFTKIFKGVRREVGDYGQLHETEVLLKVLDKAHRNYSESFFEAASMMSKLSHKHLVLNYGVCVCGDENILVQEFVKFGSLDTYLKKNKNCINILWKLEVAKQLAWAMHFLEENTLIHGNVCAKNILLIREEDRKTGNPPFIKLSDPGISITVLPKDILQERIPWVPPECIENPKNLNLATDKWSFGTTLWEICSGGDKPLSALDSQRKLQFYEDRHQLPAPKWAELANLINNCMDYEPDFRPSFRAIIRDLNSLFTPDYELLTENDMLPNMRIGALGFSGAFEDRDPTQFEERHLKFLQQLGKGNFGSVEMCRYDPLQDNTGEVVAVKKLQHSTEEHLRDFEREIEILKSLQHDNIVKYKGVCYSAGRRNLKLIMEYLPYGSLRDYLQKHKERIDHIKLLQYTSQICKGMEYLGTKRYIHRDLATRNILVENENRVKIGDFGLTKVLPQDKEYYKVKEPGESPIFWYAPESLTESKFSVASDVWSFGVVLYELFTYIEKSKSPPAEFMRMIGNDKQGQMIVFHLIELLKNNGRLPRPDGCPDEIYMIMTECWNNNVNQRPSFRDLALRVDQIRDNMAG
# assay_context: at 0.1 µM;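 further: mean percent inhibition of JAK2 activity, from the GSK PKIS kinase panel screen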
Please respond with reported inhibition for every item in the list.
The figure you give is taken to be in %; do not add the unit.

Give inhibition (Tyrosine-protein kinase JAK2 (Homo sapiens) (UniProt O60674)) of the following compound: `FC(F)(F)c1cccc(-c2nn3ncccc3c2-c2ccnc(Nc3ccc4c(c3)OCCO4)n2)c1`
0.96

Give inhibition (Tyrosine-protein kinase JAK2 (Homo sapiens) (UniProt O60674)) of the following compound: `CS(=O)(=O)CCNCc1coc(-c2ccc3ncnc(Nc4ccc(OCc5ccccc5)cc4)c3c2)c1`
1.12

Give inhibition (Tyrosine-protein kinase JAK2 (Homo sapiens) (UniProt O60674)) of the following compound: `CN1CCC(n2cnc(-c3ccc(F)cc3)c2-c2ccnc(N)n2)CC1`
0.06

Give inhibition (Tyrosine-protein kinase JAK2 (Homo sapiens) (UniProt O60674)) of the following compound: `CC(=O)Nc1cccc(C#Cc2cncnc2Nc2ccc(OCc3cccc(F)c3)c(Cl)c2)c1`
4.37

Give inhibition (Tyrosine-protein kinase JAK2 (Homo sapiens) (UniProt O60674)) of the following compound: `CCn1c(-c2nonc2N)nc2ccccc21`
1.96

Give inhibition (Tyrosine-protein kinase JAK2 (Homo sapiens) (UniProt O60674)) of the following compound: `CN1CCC(n2cnc(-c3ccc(F)cc3)c2-c2ccnc(Nc3ccccc3)n2)CC1`
0.27

Give inhibition (Tyrosine-protein kinase JAK2 (Homo sapiens) (UniProt O60674)) of the following compound: `CS(=O)(=O)CCNCc1ccc(-c2ccc3ncnc(Nc4ccc(OCc5ccccc5)c(C(F)(F)F)c4)c3c2)o1`
1.86

Give inhibition (Tyrosine-protein kinase JAK2 (Homo sapiens) (UniProt O60674)) of the following compound: `NS(=O)(=O)c1ccc(Nc2ncc(-c3ccccc3)o2)cc1`
0.87

Give inhibition (Tyrosine-protein kinase JAK2 (Homo sapiens) (UniProt O60674)) of the following compound: `Fc1ccc(-c2nn3ncccc3c2-c2ccnc(Nc3ccc4c(c3)OCCO4)n2)cc1`
0.34

Give inhibition (Tyrosine-protein kinase JAK2 (Homo sapiens) (UniProt O60674)) of the following compound: `COc1ccc(CNC(=O)c2ccc(-c3cc(-c4nnc(C)o4)ccc3C)cc2)cc1`
1.15
